Origin of measurements: patent US20240116995A1

target_of_assay: T1, human β-Klotho (human, UniProt Q86Z14 1-1044)
T1 sequence (looked up): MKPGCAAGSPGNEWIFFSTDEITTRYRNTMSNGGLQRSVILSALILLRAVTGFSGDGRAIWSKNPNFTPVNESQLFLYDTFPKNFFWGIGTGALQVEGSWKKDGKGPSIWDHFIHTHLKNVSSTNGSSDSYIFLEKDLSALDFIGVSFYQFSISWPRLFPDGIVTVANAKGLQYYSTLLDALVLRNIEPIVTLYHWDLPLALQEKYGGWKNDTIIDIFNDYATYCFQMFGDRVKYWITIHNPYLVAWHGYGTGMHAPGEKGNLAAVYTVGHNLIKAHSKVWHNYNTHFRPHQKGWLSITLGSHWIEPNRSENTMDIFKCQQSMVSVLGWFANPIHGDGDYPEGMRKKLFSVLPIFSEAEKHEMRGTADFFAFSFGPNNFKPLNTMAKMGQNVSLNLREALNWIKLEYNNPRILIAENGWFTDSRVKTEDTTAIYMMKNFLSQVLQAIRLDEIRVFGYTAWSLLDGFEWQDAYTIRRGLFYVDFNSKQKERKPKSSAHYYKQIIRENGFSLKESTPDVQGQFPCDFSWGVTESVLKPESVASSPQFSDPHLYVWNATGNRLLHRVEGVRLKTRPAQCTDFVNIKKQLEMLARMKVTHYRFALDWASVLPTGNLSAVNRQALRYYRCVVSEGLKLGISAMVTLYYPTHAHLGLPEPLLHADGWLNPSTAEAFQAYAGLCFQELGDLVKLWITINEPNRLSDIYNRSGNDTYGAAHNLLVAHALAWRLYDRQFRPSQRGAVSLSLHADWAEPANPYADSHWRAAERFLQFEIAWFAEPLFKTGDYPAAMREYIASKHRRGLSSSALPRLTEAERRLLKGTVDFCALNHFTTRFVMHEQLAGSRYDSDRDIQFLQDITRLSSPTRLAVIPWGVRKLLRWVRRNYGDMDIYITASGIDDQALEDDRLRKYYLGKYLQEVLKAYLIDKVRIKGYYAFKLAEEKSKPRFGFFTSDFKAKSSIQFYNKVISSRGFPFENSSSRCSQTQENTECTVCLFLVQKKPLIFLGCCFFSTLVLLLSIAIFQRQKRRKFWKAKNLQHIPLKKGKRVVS
method: cell-based or functional assay
So I've got a bunch of binders here, and I need their ERK phosphorylation HEK-293 cells expressing β-Klotho EC50 values values.

ERK phosphorylation HEK-293 cells expressing β-Klotho EC50 values measured on 30 kDa PEG-FGF-21 P(5)TSSP mutant conjugate (ligand, GalNAc-SA-PEG-30 kDa (glycoPEG) on the introduced threonine 6) MHPIPTSSPLLQFGGQVRQRYLYTDDAQQTEAHLEIREDGTVGGAADQSPESLLQLKALKPGVIQILGVKTSRFLCQRPDGALYGSLHFDPEACSFRELLLEDGYNVYQSEAHGLPLHLPGNKSPHRDPAPRGPARFLPLPGLPPALPEPPGILAPQPPDVGSSDPLSMVGPSQGRSPSYAS = > 3000 nM

Query 20 kDa PEG-FGF-21 P(172)TQGAS mutant conjugate (ligand, GalNAc-SA-PEG-20 kDa (glycoPEG) on the introduced threonine 173) MHPIPDSSPLLQFGGQVRQRYLYTDDAQQTEAHLEIREDGTVGGAADQSPESLLQLKALKPGVIQILGVKTSRFLCQRPDGALYGSLHFDPEACSFRELLLEDGYNVYQSEAHGLPLHLPGNKSPHRDPAPRGPARFLPLPGLPPALPEPPGILAPQPPDVGSSDPLSMVGPTQGASPSYAS yields ERK phosphorylation HEK-293 cells expressing β-Klotho EC50 values of 86 nM

The binder listed as 30 kDa PEG-FGF-21 P(172)TQGAS mutant conjugate (ligand, GalNAc-SA-PEG-30 kDa (glycoPEG) on the introduced threonine 173) MHPIPDSSPLLQFGGQVRQRYLYTDDAQQTEAHLEIREDGTVGGAADQSPESLLQLKALKPGVIQILGVKTSRFLCQRPDGALYGSLHFDPEACSFRELLLEDGYNVYQSEAHGLPLHLPGNKSPHRDPAPRGPARFLPLPGLPPALPEPPGILAPQPPDVGSSDPLSMVGPTQGASPSYAS has a reported ERK phosphorylation HEK-293 cells expressing β-Klotho EC50 values of 177 nM
